assay target: Tumor necrosis factor receptor superfamily member 16 (Homo sapiens)
Sequence (P08138 whole entry): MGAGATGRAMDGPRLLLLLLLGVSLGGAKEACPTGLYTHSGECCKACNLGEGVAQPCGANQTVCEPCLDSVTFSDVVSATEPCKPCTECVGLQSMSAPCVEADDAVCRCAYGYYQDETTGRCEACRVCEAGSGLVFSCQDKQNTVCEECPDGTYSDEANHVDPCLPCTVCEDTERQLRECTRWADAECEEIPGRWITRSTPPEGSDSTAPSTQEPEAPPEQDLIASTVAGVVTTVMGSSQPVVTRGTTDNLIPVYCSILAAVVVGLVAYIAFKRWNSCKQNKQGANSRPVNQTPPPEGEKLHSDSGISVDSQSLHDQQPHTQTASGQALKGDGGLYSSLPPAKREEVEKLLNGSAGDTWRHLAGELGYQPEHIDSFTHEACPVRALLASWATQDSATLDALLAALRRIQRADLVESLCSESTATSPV
protocol details: Inhibition of [125I]- NGF binding to extracellular domain of p75 receptor
quantity kind: pIC50
Scale for pIC50: -log10 of concentration given in mol/L; no unit attached.

Observe how each entry below is paired with its result.
smiles code: Cn1c2ccc(NC(=O)c3ccccc3)cc2c(=O)n2nc(C(=O)O)cc12
pIC50: 6.70
--
smiles code: COC(=O)c1c(C)sc2c(O)cc(C(=O)Nn3cnnn3)nc12
pIC50: 5.89
--
smiles code: Nc1ccc2nc(C(=O)O)cc(O)c2c1
pIC50: 5.51

Attention now shifts to the item below.
// pIC50 lookup, key: `COC(=O)c1c(C)sc2c(O)cc(C(=O)O)nc12`
5.64
